Tested on: Rabbit Blood Platelet
METHOD DESCRIPTION: Rabbit Blood Platelet Aggregation Inhibition Test
Assay type: cell-based, rabbit (New Zealand white strain)
REPORTED CONDITIONS: Oryctolagus cuniculus, rabbit PRP, ADP 5 μM, 37° C., mean value
pIC50: −log10 of the molar value.

[
  {
    "COMPOUND": "CCCC[C@@H](C)C[C@H](O)C#C[C@H]1[C@H](O)CC(=O)[C@@H]1CCCC/C=C/C(=O)O",
    "STUDY SYSTEM": "Rabbit Blood Platelet",
    "pIC50": 8.89
  },
  {
    "COMPOUND": "COC(=O)C#CCCCC[C@H]1C(=O)C[C@@H](O)[C@@H]1C#C[C@@H](O)CC(C)CCC=C(C)C (stereo partly shown)",
    "STUDY SYSTEM": "Rabbit Blood Platelet",
    "pIC50": 8.96
  },
  {
    "COMPOUND": "CCCC[C@H](C)C[C@H](O)C#C[C@H]1[C@H](O)CC(=O)[C@@H]1CCCCC#CC(=O)O",
    "STUDY SYSTEM": "Rabbit Blood Platelet",
    "pIC50": 8.29
  },
  {
    "COMPOUND": "O=C(O)/C=C/CCCC[C@H]1C(=O)C[C@@H](O)[C@@H]1C#C[C@@H](O)C1CCCCC1",
    "STUDY SYSTEM": "Rabbit Blood Platelet",
    "pIC50": 8.20
  },
  {
    "COMPOUND": "CCCC[C@H](C)C[C@H](O)C#C[C@H]1[C@H](O)CC(=O)[C@@H]1CCCC/C=C/C(=O)O",
    "STUDY SYSTEM": "Rabbit Blood Platelet",
    "pIC50": 8.59
  },
  {
    "COMPOUND": "COC(=O)/C=C/CCCC[C@H]1C(=O)C[C@@H](O)[C@@H]1C#C[C@@H](O)C1CCCCC1",
    "STUDY SYSTEM": "Rabbit Blood Platelet",
    "pIC50": 8.22
  },
  {
    "COMPOUND": "CCCC[C@@H](C)C[C@H](O)C#C[C@H]1[C@H](O)CC(=O)[C@@H]1CCCCC#CC(=O)OC",
    "STUDY SYSTEM": "Rabbit Blood Platelet",
    "pIC50": 9.13
  },
  {
    "COMPOUND": "CCCC[C@H](C)C[C@H](O)/C=C/[C@H]1[C@H](O)CC(=O)[C@@H]1CCCC/C=C/C(=O)O [limaprost, reference compound]",
    "STUDY SYSTEM": "Rabbit Blood Platelet",
    "pIC50": 8.20
  },
  {
    "COMPOUND": "CCC#CCC(C)[C@H](O)C#C[C@H]1[C@H](O)CC(=O)[C@@H]1CCCC/C=C/C(=O)O (stereo partly shown)",
    "STUDY SYSTEM": "Rabbit Blood Platelet",
    "pIC50": 8.96
  },
  {
    "COMPOUND": "CCC#CCC(C)[C@H](O)C#C[C@H]1[C@H](O)CC(=O)[C@@H]1CCCC/C=C/C(=O)OC (stereo partly shown)",
    "STUDY SYSTEM": "Rabbit Blood Platelet",
    "pIC50": 8.77
  },
  {
    "COMPOUND": "CCCC[C@H](C)C[C@H](O)C#C[C@H]1[C@H](O)CC(=O)[C@@H]1CCCCC#CC(=O)OC",
    "STUDY SYSTEM": "Rabbit Blood Platelet",
    "pIC50": 8.52
  },
  {
    "COMPOUND": "CCCCC[C@H](O)/C=C/[C@H]1[C@H](O)CC(=O)[C@@H]1CCCCCCC(=O)O",
    "STUDY SYSTEM": "Rabbit Blood Platelet",
    "pIC50": 7.59
  },
  {
    "COMPOUND": "CCCCCC(C)C[C@H](O)C#C[C@H]1[C@H](O)CC(=O)[C@@H]1CCCC/C=C/C(=O)O (stereo partly shown)",
    "STUDY SYSTEM": "Rabbit Blood Platelet",
    "pIC50": 8.57
  },
  {
    "COMPOUND": "CCCC[C@@H](C)C[C@H](O)C#C[C@H]1[C@H](O)CC(=O)[C@@H]1CCCC/C=C/C(=O)OC",
    "STUDY SYSTEM": "Rabbit Blood Platelet",
    "pIC50": 8.85
  },
  {
    "COMPOUND": "CCCC[C@H](C)C[C@H](O)C#C[C@H]1[C@H](O)CC(=O)[C@@H]1CCCCCC/C=C/C(=O)O",
    "STUDY SYSTEM": "Rabbit Blood Platelet",
    "pIC50": 8.29
  },
  {
    "COMPOUND": "CCCC[C@@H](C)C[C@H](O)C#C[C@H]1[C@H](O)CC(=O)[C@@H]1CCCCC#CC(=O)O",
    "STUDY SYSTEM": "Rabbit Blood Platelet",
    "pIC50": 9.43
  }
]
